Test: NCI Yeast Anticancer Drug Screen. Data for the mlh1 rad18 strain (AID 175)
Settings: S. cerevisiae mlh1 rad18 strain growth inhibition; at 50.0 µM (retest, dose inferred, filed as 5.0); hits give high values
Description: Growth inhibition of yeast strains with defined genetic alterations is measured as a screen for potential anti-cancer activity. Selected strains with alterations in DNA damage repair or cell cycle control were exposed to compounds and growth inhibition was measured relative to vehicle treated controls. The strain used in this assay is mlh1 rad18
About 79,000 compounds went through this panel and 15% of them were active in at least one assay; those are over-represented in the sample as a whole. Activity calls are given as the source filed them. Cut-off read from the data, not from the text of the source: active = growth inhibition above about 70%; inactive = the rest.
Measurement kind: growth inhibition

ClCCN(CCCl)c1ccc(C2N(Cc3ccc(Cl)cc3)CCCN2Cc2ccc(Cl)cc2)cc1    94% (active)
COC(=O)C1C2c3ccccc3C(c3ccccc32)C1C(=O)OC (stereo unspecified)    69% (inactive)
Cc1ccc([PH+](c2ccc(C)cc2)c2ccc(C)cc2)cc1.Cc1ccc([PH+](c2ccc(C)cc2)c2ccc(C)cc2)cc1.[Cl][Hg][Cl]    94% (active)
COc1cc(C2c3cc4c(cc3[C@@H](Nc3ccc(N)cc3)C3COC(=O)[C@H]23)OCO4)cc(OC)c1O (stereo partly specified)    94% (active)
[N-]=[N+]=C1C(Cl)=C(Cl)C(Cl)=C1Cl    97% (active)
CC[C@@]1(O)C[C@H](OC2CC(N(C)C)C(O)C(C)O2)c2c(O)c3c(c(O)c2[C@H]1OC1CC(N(C)C)C(O)C(C)O1)C(=O)c1cccc(O)c1C3=O (stereo partly specified)    63% (inactive)
CC(Cl)CN(C)C (stereo unspecified)    37% (inactive)
COC1C(C)OC(OC2CC(C)(O)Cc3cc4c(c(O)c32)C(=O)c2c(O)cc3c(c2C4=O)OC2OC3(C)C(O)C(N(C)C)C2O)C(OC)C1(C)OC (stereo unspecified)    98% (active)
Nc1ccc(N=Nc2ccccc2)cc1    78% (active)
CCOCCOC(=O)Cc1ccccc1    19% (inactive)
Cc1cn(CC2C=CC(CS[As](C)C)O2)c(=O)[nH]c1=O (stereo unspecified)    84% (active)
C[CH2][Sn]([CH2]C)([S]CCS(=O)(=O)O)[S]CCS(=O)(=O)O (tested in a mixture with another compound)    32% (inactive)
CC(Br)c1ccccc1 (stereo unspecified)    21% (inactive)
ClC(C[n+]1ccccc1)c1ccccc1 (stereo unspecified)    51% (inactive)
COc1cc(OC)c(OC)cc1/C=C/[N+](=O)[O-]    91% (active)
CC(C)C1(NC(=O)C2C=C3c4cccc5[nH]cc(c45)CC3N(C)C2)OC2(O)C3CCCN3C(=O)C(Cc3ccccc3)N2C1=O (stereo unspecified)    97% (active)
C=CC[N+]12CN3CN(CN(C3)C1)C2    52% (inactive)
CCC1(O)C(=O)OCc2c1cc1n(c2=O)Cc2cc3ccccc3nc2-1 (stereo unspecified)    70% (active)
CC(C)(C)c1cc([N+](=O)[O-])cc([N+](=O)[O-])c1O    100% (active)
CCC[CH2][Sn]1([CH2]CCC)[O]C(c2ccccn2)S(=O)(=O)[O]1 (stereo unspecified)    10% (inactive)
Cc1ccc(S(=O)(=O)OC2CCC3C4CC=C5CC(SC(=N)N)CCC5(C)C4CCC23C)cc1 (stereo unspecified)    44% (inactive)

---

Experiment: NCI Yeast Anticancer Drug Screen. Data for the rad18 strain (AID 177)
Settings: S. cerevisiae rad18 mutant growth inhibition; at 33.0 µM
This is part of a sample that, as a whole, favours compounds with a hit. Of some 79,000 tested, about 15% had one in any assay. The source made the active and inactive calls. Cut-off read from the data, not from the text of the source: active = growth inhibition above about 70%; inactive = the rest.
Classes used: 1 = active, -1 = inactive

O=[N+]([O-])c1cc([As](Br)c2ccc(O)c([N+](=O)[O-])c2)ccc1O    1
CCC1(O)C(=O)OCc2c1cc1n(c2=O)Cc2c-1nc1ccccc1c2OC (configuration not stated)    -1
Cn1cnc(N)c1C(=N)[Se]    1
CC(C)(C)c1cc([N+](=O)[O-])cc([N+](=O)[O-])c1O    -1
O=C1OC2C(O1)C1(Cl)C(Cl)=C(Cl)C2(Cl)C1(Cl)Cl (configuration not stated)    -1
COC(=O)C1C2c3ccccc3C(c3ccccc32)C1C(=O)OC (configuration not stated)    -1
OC(c1ccc(Br)cc1)C(Cl)(Cl)Cl (configuration not stated)    1

---

Listing of entries alongside the reported growth inhibition.
Test: NCI Yeast Anticancer Drug Screen. Data for the rad50 strain (AID 155);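 note: 0% = growth of vehicle-only cultures of the same strain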
Settings: S. cerevisiae rad50 strain growth inhibition; at 50.0 µM (retest, dose inferred, filed as 5.0); hits give high values
This is part of a sample that, as a whole, favours compounds with a hit. Of some 79,000 tested, about 15% had one in any assay. *1 amine or outer side, *2 acyl side, *3 side chain or, on linkers, in order; H or OH if unused. Where a SMILES comes first, the peptide text is derived from it. [ ]: non-standard residue; d: D form. X2 = CC[C@H](C)[C@H](OC(=O)[C@@H](C)[C@@H](CC)N[*:1])C(=O)[*:2]; X3 = C[C@H](N[*:1])C(=O)C(C)(C)C(=O)[*:2]; NMeY = CN[C@@H](Cc1ccc(O)cc1)C(=O)O; NMeL = CN[C@@H](CC(C)C)C(=O)O; NMeV = CN[C@H](C(=O)O)C(C)C
Measurement kind: growth inhibition (%)

CCC[CH2][Sn]([Cl])([CH2]Cl)[CH2]CCC    99
[C-]#[O+].[C-]#[O+].[C-]#[O+].[Cl-].[Ru+2].c1ccc([PH+](CC[PH+](c2ccccc2)c2ccccc2)CC[PH+](c2ccccc2)c2ccccc2)cc1    98
O=C(O)C1C2c3ccccc3C(c3ccccc32)C1C(=O)O (configuration not stated)    47
C/C(=N\O)C(CN(C)C)C(c1ccccc1)c1c(O)c2ccccc2oc1=O (configuration not stated)    25
CCC[CH2][Sn]1([CH2]CCC)[O]C(c2ccccn2)S(=O)(=O)[O]1 (configuration not stated)    19
CC(=O)OC1C2(CC3N4C(=O)C5(CO)SSC4(CC31O)C(=O)N5C)OC(C)C(C)(C)C2=O (configuration not stated)    99
Cc1ccc(S)cc1.[Pb]    30
Cn1cc(NC(=O)c2cc(NC(=O)CN=C(N)N)cn2C)cc1C(=O)NCCC(=N)N    87
COc1ccc2c3c(c4cc(OC)c(OC)cc4c2c1)C[C@H]1CCCCN1C3    99
c1ccc([Te][Te]c2ccccc2)cc1    90
COc1cc(CC(=O)N2CC2)cc(OC)c1OC    -1
CCn1c(O)c(C(=O)NC(C)c2ccc([N+](=O)[O-])cc2)c(=O)n(CC)c1=S (configuration not stated)    91
COC(COC(=O)N1CCN(C=O)CC1)C1=C(N2CC2)C(=O)C(C)=C(N2CC2)C1=O (configuration not stated)    22
CCCCCCCCCCCCCCCCCC(=O)[O][Hg][c]1ccccc1    96
O=C(C1C(c2ccccc2)N1C(c1ccccc1)c1ccccc1)C1C(c2ccccc2)N1C(c1ccccc1)c1ccccc1 (configuration not stated)    50
ClCC[N+]12CC[N+](CCCl)(CC1)C2    97
CC(Br)CN1CCOCC1 (configuration not stated)    97
CC[C@H](C)[C@@H]1OC(=O)[C@@H](C)[C@@H](CC)NC(=O)[C@H](C)NC(=O)C(C)(C)C(=O)[C@H](C)NC(=O)[C@H](Cc2ccc(OC)cc2)N(C)C(=O)[C@H](C(C)C)N(C)C(=O)CNC(=O)[C@H](CC(C)C)N(C)C(=O)CNC1=O (cyclo(A[X2]G[NMeL]G[NMeV][NMeY](Me)[X3]))    99
CNCC(O)c1cn(C)c2ccccc12 (configuration not stated)    0
C[Si]1(C)CCCCC2(C1)C(=O)NC(=O)NC2=O    17
Cc1ccc2c[c]1[Hg][CH2]COS2(=O)=O    98
CCN(CC)C(=S)S    99
CCC[CH2][Sn]1([CH2]CCC)[O]C(=O)c2cccnc2[O]1    94
COC(=O)CCCCCCCCC[CH2][Hg][Cl]    99
C[C@]12CCC3[C@@H](CC[C@@H]4c5nonc5CC[C@]34C)C1CCC2=O (some centres not stated)    67
Cc1nc(Cl)c(CBr)c(Cl)n1    99
O=S(=O)(O)/C(=C\c1ccccc1)c1ccccc1 (tested in a mixture with another compound)    15

---

Experiment: NCI Yeast Anticancer Drug Screen. Data for the rad50EPP+ strain (AID 151);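 note: 0% = growth of vehicle-treated control cultures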
Details: S. cerevisiae rad50 mutant strain, at 3.7 µM, hits give high values
This is part of a sample that, as a whole, favours compounds with a hit. Of some 79,000 tested, about 15% had one in any assay.
Measurement kind: growth inhibition (%)

COC(=O)C1c2cc3c(c(O)c2C(O)CC1(C)O)C(=O)c1c(O)cc2c(c1C3=O)OC1OC2(C)C(O)C(N(C)C)C1O (stereo not drawn)    18
COc1cc([C@@H]2c3cc4c(cc3C[C@@H]3COC(=O)C32)OCO4)cc(OC)c1O (stereo partly drawn)    -6
C/C(CCl)=N/NC1=NC(c2ccccc2Cl)P(=O)(NCCCNP2(=O)SC(N/N=C(/C)CCl)=NC2c2ccccc2Cl)S1 (stereo not drawn)    2
NNc1ccccc1Cl    80
CCCCCCCCCCCCCCCCP(=O)(O)OP(=O)(O)OCC1OC(n2ccc(N)nc2=O)C(O)C1O (stereo not drawn)    -5
O=S(=O)(O)/C(=C\c1ccccc1)c1ccccc1 (tested in a mixture with another compound)    -2
c1cc2c(cc1C1OC[C@H]3[C@@H](c4ccc5c(c4)OCO5)OC[C@@H]13)OCO2 (stereo partly drawn)    -16
CC[C@](O)(C(=O)O)c1cc2n(c(=O)c1CO)Cc1cc3ccccc3nc1-2    93
